target: P2X purinoceptor 7 (Homo sapiens); experiment: Antagonist activity at P2X7 receptor (unknown origin); details: read-out: pIC50 (converted)
Sequence (Q99572 whole entry): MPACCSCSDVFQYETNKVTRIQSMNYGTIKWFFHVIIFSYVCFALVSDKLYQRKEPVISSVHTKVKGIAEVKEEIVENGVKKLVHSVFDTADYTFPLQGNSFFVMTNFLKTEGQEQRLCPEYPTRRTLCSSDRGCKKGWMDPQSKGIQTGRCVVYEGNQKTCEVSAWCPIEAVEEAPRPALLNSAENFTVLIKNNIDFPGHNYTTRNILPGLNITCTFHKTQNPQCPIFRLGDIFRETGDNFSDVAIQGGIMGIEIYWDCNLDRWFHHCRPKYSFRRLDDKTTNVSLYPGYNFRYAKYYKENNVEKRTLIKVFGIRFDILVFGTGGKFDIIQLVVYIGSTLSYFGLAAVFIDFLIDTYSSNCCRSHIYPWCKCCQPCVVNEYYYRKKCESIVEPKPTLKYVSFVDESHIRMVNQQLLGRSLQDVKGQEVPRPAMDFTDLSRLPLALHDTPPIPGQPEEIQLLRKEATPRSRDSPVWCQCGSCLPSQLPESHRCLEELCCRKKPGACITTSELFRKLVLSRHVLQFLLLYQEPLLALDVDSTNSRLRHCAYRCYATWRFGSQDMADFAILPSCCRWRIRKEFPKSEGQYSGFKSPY
QUANTITY MEASURED: IC50

>>> df
                                   compound              target_or_test_system  quantity_measured     result
0  COc1ccc(C)c(NC(=O)CC23CC4CC(CC(C4)C2)C3)c1  P2X purinoceptor 7 (Homo sapiens)               IC50      10 nM
1     O=C(NCC12CC3CC(CC(C3)C1)C2)c1ccccc1Cl  P2X purinoceptor 7 (Homo sapiens)               IC50    7.94 nM
2  CC(NC(=O)c1ccc(Cl)cc1)C12CC3CC(CC(C3)C1)C2 (stereo unspecified)  P2X purinoceptor 7 (Homo sapiens)               IC50     398 nM
3  O=C(CN1CC(=O)N(c2ccccc2)C1=O)NCc1ccc(F)cc1Cl  P2X purinoceptor 7 (Homo sapiens)               IC50  > 1000 nM
4  Cc1nn(-c2ccccc2)c(C)c1Cc1nnc(Cc2ccc(Cl)cc2Cl)o1  P2X purinoceptor 7 (Homo sapiens)               IC50  > 1000 nM
5           COc1cccc(-c2nnnn2Cc2cccnc2)c1OC  P2X purinoceptor 7 (Homo sapiens)               IC50    3980 nM
